Numbers sourced from patent US12269012B2.

protocol.details: Bound and recovery of PAH standards on PS-DVB on-column standards after 15 days of storage
Assay type: physicochemical
measurement.setup: standards 0.1-9 ppm, after 15 days of storage of on-column standards
recorded.endpoint: Average % Recovered

As a guide, the following entries are already answered.
compound	Average % Recovered
c1ccc2c(c1)ccc1c3ccccc3ccc21 [Chrysene (Ch), Chrysene]	100-102%
c1ccc2c(c1)-c1cccc3c1c-2cc1ccccc13 [Benzo(b)fluoranthene (B(b)F), Benzo(b)fluoranthene]	90-97%
c1ccc2cc3c(ccc4ccccc43)cc2c1 [Benz(a)anthracene (B(a)A), Benz(a)anthracene]	100-102%

# input for lookup
I have this compound here, c1ccc2c(c1)cc1ccc3cccc4ccc2c1c34 [Benzo(a)pyrene (B(a)P), Benzo(a)pyrene] , and I need its recorded Average % Recovered. 96-100%
